# measurement.target: prothrombinase-activated prothrombin-KL3
# condition.info: 5 nM prothrombinase-activated KL3; 50 μM pNAPEP-0238; read-out: IC50, pNAPEP-0238 conversion
readout.name: IC50 (nM)

- [H]/N=C(/N)c1ccc(NCc2nc3cc(C(=O)N(CCC(=O)O)c4ccccn4)ccc3n2C)cc1: 237

* * *

# measurement.target: prothrombinase-activated prothrombin-KL3
# condition.info: KL3; Cheng-Prusoff equation
readout.name: Ki (nM)

• [H]/N=C(/N)c1ccc(NCc2nc3cc(C(=O)N(CCC(=O)O)c4ccccn4)ccc3n2C)cc1 = 150
